Here we gather IC50 data for Mast/stem cell growth factor receptor Kit (Homo sapiens, UniProt P10721) reported by several publications.
READOUT_TYPE: IC50 (nM)

(a) Cc1ncc(NC(=O)c2ccc(CN3CCN(C)CC3)c(C(F)(F)F)c2)cc1Nc1nccc(-c2cccnc2)n1
(b) COCCNCC(C)(C)c1ccc(NC(=O)c2nc(C#N)c[nH]2)c(C2=CCC(C)(C)CC2)c1
(c) O=C(Nc1ccc(-c2ccnc(Nc3ccc(N4CCOCC4)cc3)n2)cc1)[C@H]1CCCN1
(d) Cc1n[nH]c2nccc(-c3ccc(NC(=O)Nc4cccc(N(C)C)c4)cc3)c12
-- ask Lab note: rank above entries, IC50 ascending. Answer with the labels in sequence, matching the requested order.
-- reply d, b, c, a
(d: 2.6 nM, b: 110 nM, c: 226 nM, a: 666 nM)
